These entries and their values trace back to patent US20260042755A1.

target: GPR3 (Homo sapiens, UniProt P46089); construct: expressed in transfected cells; host or cells: CHO cells; test: GPR3 antagonist functional cAMP assay (LANCE Ultra cAMP TR-FRET, CHO cells stably expressing GPR3); format: cell-based; details: procedure as described in Example 24
Sequence (P46089 whole entry, species assumed): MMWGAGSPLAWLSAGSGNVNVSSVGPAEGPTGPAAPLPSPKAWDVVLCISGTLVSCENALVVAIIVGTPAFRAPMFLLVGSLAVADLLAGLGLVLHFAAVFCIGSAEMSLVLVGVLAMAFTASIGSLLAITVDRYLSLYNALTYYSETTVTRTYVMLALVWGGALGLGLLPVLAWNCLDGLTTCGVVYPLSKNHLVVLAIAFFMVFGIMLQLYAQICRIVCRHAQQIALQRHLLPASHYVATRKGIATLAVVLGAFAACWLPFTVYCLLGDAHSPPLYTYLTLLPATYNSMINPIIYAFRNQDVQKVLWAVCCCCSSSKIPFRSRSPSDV
pIC50: −log10 of the molar value.
measurement name: pIC50

Below, each entry is followed by its recorded pIC50 result.
{"compound": "CC(=O)N1CCc2nc(N3CCC(Oc4ccc(F)cc4F)CC3)c(-c3cn[nH]c3)nc2C1 [Compound 32]", "pIC50": "4.52 to 6.00"}
{"compound": "COc1ccc(-c2nc3c(nc2N2CCC(Oc4ccc(F)cc4F)CC2)CCN(C(C)=O)C3)nc1 [Compound 10]", "pIC50": "4.52 to 6.00"}
{"compound": "COc1ccnc(-c2nc3c(nc2N2CCC(Oc4ccc(F)cc4F)CC2)CCN(C(C)=O)C3)c1 [Compound 7]", "pIC50": "6.00 to 7.00"}
{"compound": "CC(=O)N1CCc2nc(N3CCC(Oc4ccc(F)cc4F)CC3)c(-c3cnn(CCF)c3)nc2C1 [Compound 16]", "pIC50": "4.52 to 6.00"}
{"compound": "COc1cc(-c2nc3c(nc2N2CCC(Oc4ccc(F)cc4F)CC2)CCN(C(C)=O)C3)ccn1 [Compound 20]", "pIC50": "4.52 to 6.00"}

If you can, please state the reported pIC50 value of Fc1ccc(OC2CC3(C2)CN(c2nc4ccncc4nc2-c2cn[nH]c2)C3)c(F)c1 [Compound 26] .
6.00 to 7.00

Next compound up: Fc1ccc(NC2CCN(c3nc4ccncc4nc3-c3cn[nH]c3)CC2)c(F)c1 [Compound 35]
4.52 to 6.00

###

target: GPR6 (Homo sapiens, UniProt P46095); construct: expressed in transfected cells; host or cells: CHO cells; assay: GPR6 antagonist functional cAMP assay (LANCE Ultra cAMP TR-FRET, CHO cells stably expressing GPR6); format: cell-based; settings: procedure of Example 24
Sequence (P46095 whole entry): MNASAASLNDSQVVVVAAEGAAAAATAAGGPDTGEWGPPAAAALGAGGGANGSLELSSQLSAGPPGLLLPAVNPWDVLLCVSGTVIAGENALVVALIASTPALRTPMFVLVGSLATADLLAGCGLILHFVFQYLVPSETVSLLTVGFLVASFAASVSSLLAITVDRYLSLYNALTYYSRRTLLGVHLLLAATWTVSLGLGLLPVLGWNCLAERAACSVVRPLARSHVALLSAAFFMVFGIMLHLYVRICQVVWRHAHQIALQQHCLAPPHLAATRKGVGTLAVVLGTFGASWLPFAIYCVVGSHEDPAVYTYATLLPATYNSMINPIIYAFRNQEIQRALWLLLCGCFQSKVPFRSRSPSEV
measurement name: IC50

{"compound": "CC(=O)N1CCc2nc(N3CC[C@H](Oc4ccc(F)cc4F)[C@H](F)C3)c(-c3cnn(C)c3)nc2C1 (single isomer, unassigned)", "subject of test": "GPR6 (Homo sapiens, UniProt P46095)", "IC50": "1 to 30 µM"}
{"compound": "CCn1cc(-c2nc3c(nc2N2CCC(Oc4ccc(F)cc4F)CC2)CCN(C#N)C3)cn1", "subject of test": "GPR6 (Homo sapiens, UniProt P46095)", "IC50": "< 0.1 µM"}
{"compound": "CC(=O)N1CCc2nc(N3CCN(Cc4ccc(F)cc4C)CC3)c(-c3cnn(C)c3)nc2C1", "subject of test": "GPR6 (Homo sapiens, UniProt P46095)", "IC50": "1 to 30 µM"}
{"compound": "CC(=O)N1CCc2nc(N3CCN(Cc4c(F)cccc4F)CC3)c(-c3cnn(C)c3)nc2C1", "subject of test": "GPR6 (Homo sapiens, UniProt P46095)", "IC50": "1 to 30 µM"}
{"compound": "CC(C)(O)C(C)(O)c1cc2nc(-c3cnn(CF)c3)c(N3CCC(Oc4ccc(F)cc4F)CC3)nc2cn1 (single isomer, unassigned) [Compound 782]", "subject of test": "GPR6 (Homo sapiens, UniProt P46095)", "IC50": "0.1 to 1 µM"}

# input compound: COc1ccc(CN2CCN(c3nc4c(nc3-c3cnn(C)c3)CN(C(C)=O)CC4)CC2)cc1 ; wanted: its IC50
1 to 30 µM

CC(=O)N1CCc2nc(N3CCC([C@@H](F)c4ccc(F)cc4F)CC3)c(-c3cnn(C)c3)nc2C1 (single isomer, unassigned) , same question.
< 0.1 µM
